Origin of values: PubChem BioAssay AID1159580

Test: chemical genetic growth profiling, strain panel (AID 1159580);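 further: tested at 20 µM; growth read once vehicle control cultures reached saturation at 30 °C; lower values mean less growth of the strain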
Conditions: S. cerevisiae deletion strains, growth OD, locus YDL005C, strain med2, hits give low values
The campaign covered roughly 5,500 compounds. About 2,000 (36%) were called active. Not shown: some 18% with an inconclusive outcome. Some of the results follow.
Decision: normalized growth beneath 1 gives Y; normalized growth meeting or exceeding 1 gives N.

IN: Lab log: compare recorded normalized growth with 1; is it strictly lower for CC(=O)O[C@H]1CC[C@]2(C)C3CC[C@@]4(C)C(CC5O[C@@]6(CCC(C)CO6)[C@@H](C)C54)C3CC[C@@H]2C1 (some centres not stated) ?
OUT: N

IN: Input COC(=O)[C@]1(C)CC[C@]2(C)CC[C@]3(C)C4=CC=C5C(=CC(=O)C(O)=C5C)[C@]4(C)CC[C@@]3(C)[C@@H]2C1 ; condition: normalized growth strictly below 1. Does it hold?
OUT: Y
